What melting point was measured for each of the following?

Input: Looking for the measured melting point of C[C@]1(COc2ccc(N3CCC(OCc4ccc(OC(F)(F)F)cc4)CC3)cc2)Cn2cc([N+](=O)[O-])nc2O1 , can you help?
Output: 214 to 218 °C

Input: Looking for the measured melting point of O=c1c2cc(F)c(N3CCCC3)nc2n(-c2ccc(F)cc2)c(=O)n1O , can you help?
Output: 172 to 174 °C

Input: Looking for the measured melting point of COc1ccc(NC(=O)Nc2cccc(C(F)(F)F)c2)c(O)n1 , can you help?
Output: 223 to 224 °C

Input: Looking for the measured melting point of CN1CCN(C(=O)c2cc3ccnc(Cl)c3[nH]2)CC1 , can you help?
Output: 230 to 232 °C

Input: Looking for the measured melting point of CC(C)(C)OC(=O)N1CCC(=O)N1c1ccccc1 , can you help?
Output: 150 °C

Input: Looking for the measured melting point of CC(C)c1c(C=O)c(-c2ccccc2)c2c3ccccc3ccn12 , can you help?
Output: 134 to 136 °C

Input: Looking for the measured melting point of CN(C)C(=O)Nc1cccc(Cl)c1 , can you help?
Output: 138 to 142 °C

Input: Looking for the measured melting point of O=C(C(c1ccc(Cl)cc1)c1c(Cl)cc(-n2ncc(=O)[nH]c2=O)cc1Cl)N1CCCC1 (stereo not given) , can you help?
Output: 154 °C

Input: Looking for the measured melting point of CCCCCCCCOc1ccc(C(=O)NN)cc1 , can you help?
Output: 90 °C

Input: Looking for the measured melting point of COc1cc2nc(-c3cc(C)c(O)c(C)c3)[nH]c(=O)c2c(OC)c1CN1CCOCC1 , can you help?
Output: 237 to 239 °C

These data points were gathered from a melting point compilation (Tetko et al.; mined from patent text by program, amines drawn as free bases though some values may be those of a salt).
